test: Cmax in cannulated fed Sprague-Dawley rat at 6 mg/kg, po; type: ADME, organism-based; set-up: dose 6 mg/kg, route oral; details: in vivo
measured-parameter: Cmax (nM)
Please state the figure in nM; there is no need to write the unit.

Query block: Consider the molecule COCCCOc1cc(C(=O)N(C[C@@H]2CNC[C@H]2OC(=O)NCc2ccccc2)C(C)C)ccc1OC and give its measured Cmax.
Result block: 1020

---

experiment: Half life in cannulated fed Sprague-Dawley rat at 2 mg/kg, iv; type: ADME, organism-based; parameters: dose 2 mg/kg, route intravenous; conditions: in vivo
measured-parameter: half-life
Kindly write the number and append the unit.

Query block: Param item = COCCCOc1cc(C(=O)N(C[C@@H]2CNC[C@H]2OC(=O)NCc2ccccc2)C(C)C)ccc1OC ; retrieve measured half-life.
Result block: 2.2 h

Attribution: ChEMBL document CHEMBL3400053
